Origin of the recorded values: ChEMBL document CHEMBL3112572

target: Sodium channel protein type 9 subunit alpha (Homo sapiens, UniProt Q15858); assay: Modulation of human Nav1.7 in open-inactivated state assessed as inhibition of inward current after 4 mins by whole-cell electrophysiology
Sequence (Q15858 whole entry): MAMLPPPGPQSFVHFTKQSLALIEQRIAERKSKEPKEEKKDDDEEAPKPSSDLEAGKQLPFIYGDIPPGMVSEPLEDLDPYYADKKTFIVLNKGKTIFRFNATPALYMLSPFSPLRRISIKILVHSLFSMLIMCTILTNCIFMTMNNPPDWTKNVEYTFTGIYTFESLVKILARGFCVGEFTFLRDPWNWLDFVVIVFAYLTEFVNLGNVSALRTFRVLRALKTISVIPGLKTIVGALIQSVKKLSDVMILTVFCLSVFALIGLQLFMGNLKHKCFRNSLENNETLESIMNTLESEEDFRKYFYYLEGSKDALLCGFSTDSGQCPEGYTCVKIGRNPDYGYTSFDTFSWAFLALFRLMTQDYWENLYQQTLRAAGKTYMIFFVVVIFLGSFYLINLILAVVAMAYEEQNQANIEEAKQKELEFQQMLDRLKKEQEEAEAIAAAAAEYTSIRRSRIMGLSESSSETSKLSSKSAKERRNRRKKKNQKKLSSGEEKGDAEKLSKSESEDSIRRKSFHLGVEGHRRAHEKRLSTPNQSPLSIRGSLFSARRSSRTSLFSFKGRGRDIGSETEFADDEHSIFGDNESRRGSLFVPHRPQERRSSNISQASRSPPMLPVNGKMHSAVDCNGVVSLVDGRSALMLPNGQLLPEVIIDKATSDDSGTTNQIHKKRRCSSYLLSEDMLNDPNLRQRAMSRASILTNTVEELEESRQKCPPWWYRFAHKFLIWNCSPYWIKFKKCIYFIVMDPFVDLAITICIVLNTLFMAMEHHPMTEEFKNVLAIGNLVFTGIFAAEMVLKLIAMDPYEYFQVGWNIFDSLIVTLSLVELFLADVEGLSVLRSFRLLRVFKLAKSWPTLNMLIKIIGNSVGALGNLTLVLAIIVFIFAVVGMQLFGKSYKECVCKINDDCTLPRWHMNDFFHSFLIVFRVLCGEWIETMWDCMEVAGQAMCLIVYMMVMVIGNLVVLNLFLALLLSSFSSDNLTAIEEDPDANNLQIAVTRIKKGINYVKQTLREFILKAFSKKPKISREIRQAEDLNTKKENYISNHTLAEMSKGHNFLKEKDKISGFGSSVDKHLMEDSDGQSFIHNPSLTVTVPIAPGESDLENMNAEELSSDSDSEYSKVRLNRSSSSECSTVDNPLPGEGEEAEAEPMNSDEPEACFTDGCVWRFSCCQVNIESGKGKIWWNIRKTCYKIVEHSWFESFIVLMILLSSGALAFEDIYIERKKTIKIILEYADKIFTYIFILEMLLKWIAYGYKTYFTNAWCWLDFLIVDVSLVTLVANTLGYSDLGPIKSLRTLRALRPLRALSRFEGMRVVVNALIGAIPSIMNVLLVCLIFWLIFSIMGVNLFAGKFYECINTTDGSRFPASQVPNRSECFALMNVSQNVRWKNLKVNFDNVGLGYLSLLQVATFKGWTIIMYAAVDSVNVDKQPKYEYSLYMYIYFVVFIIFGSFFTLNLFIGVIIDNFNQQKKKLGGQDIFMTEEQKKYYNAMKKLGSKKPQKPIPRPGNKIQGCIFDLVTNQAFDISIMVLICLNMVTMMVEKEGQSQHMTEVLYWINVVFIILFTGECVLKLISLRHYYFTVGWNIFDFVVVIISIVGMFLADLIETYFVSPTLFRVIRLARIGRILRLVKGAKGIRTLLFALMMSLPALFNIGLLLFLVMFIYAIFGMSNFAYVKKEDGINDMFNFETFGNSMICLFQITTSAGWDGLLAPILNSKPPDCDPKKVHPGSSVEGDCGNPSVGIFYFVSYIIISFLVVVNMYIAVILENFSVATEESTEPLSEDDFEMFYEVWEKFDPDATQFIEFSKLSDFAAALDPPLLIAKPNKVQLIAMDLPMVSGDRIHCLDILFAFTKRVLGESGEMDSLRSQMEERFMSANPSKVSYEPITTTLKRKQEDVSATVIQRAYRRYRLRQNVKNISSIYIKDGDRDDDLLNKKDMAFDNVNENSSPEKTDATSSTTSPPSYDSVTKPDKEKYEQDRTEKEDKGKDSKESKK
pIC50: −log10 of the molar value.
Listing of entries alongside the reported pIC50.

## Task Bench note: what pIC50 did `CNc1nc(-c2cccc(NC(=O)c3cc4ccccc4[nH]3)c2)c[nH]1` show?
## Result < 4.52

New cases:
## Task Look up pIC50: `CC(C)(C)OC(=O)n1cc(-c2cccc(NC(=O)[C@H]3CCCN3)c2)nc1N`
## Result 4.54

## Task Moving on to the next compound: `Nc1nc(-c2cccc(NC(=O)c3ccc[nH]3)c2)cn1C(=O)c1ccc[nH]1`
## Result 4.72

## Task Same for `Nc1nc(-c2cccc(NC(=O)c3ccc[nH]3)c2)c[nH]1`
## Result < 4.52

## Task Moving on to `Nc1nc(-c2cccc(NC(=O)c3cc4ccccc4[nH]3)c2)c[nH]1`
## Result < 4.52

## Task Can you handle `Nc1nc(-c2ccc(NC(=O)[C@@H]3CCCN3)cc2)c[nH]1` next?
## Result < 4.52
